Tested on: HT-29 cells
Experiment: HT-29 Cell Proliferation Assay (MTT)
Format: cell-based
Conditions: Homo sapiens, HT-29, read-out: HT-29 Cell Proliferation Assay Results (IC50)
pIC50: −log10 of the molar value.
reported.metric: pIC50

INSERT INTO measurements (molecule, numeric_result) VALUES
  ('CS(=O)(=O)CCNCc1ccc(-c2ccc3ncnc(Nc4ccc(OCc5cccc(F)c5)c(Cl)c4)c3c2)o1 [Tykerb, reference compound]', 5.30);

----------
Biological target: EGFR (Homo sapiens, UniProt P00533)
Construct: endogenous in cells; host or cells: A431 cells (ATCC CRL-1555)
Sequence (P00533 25-1210): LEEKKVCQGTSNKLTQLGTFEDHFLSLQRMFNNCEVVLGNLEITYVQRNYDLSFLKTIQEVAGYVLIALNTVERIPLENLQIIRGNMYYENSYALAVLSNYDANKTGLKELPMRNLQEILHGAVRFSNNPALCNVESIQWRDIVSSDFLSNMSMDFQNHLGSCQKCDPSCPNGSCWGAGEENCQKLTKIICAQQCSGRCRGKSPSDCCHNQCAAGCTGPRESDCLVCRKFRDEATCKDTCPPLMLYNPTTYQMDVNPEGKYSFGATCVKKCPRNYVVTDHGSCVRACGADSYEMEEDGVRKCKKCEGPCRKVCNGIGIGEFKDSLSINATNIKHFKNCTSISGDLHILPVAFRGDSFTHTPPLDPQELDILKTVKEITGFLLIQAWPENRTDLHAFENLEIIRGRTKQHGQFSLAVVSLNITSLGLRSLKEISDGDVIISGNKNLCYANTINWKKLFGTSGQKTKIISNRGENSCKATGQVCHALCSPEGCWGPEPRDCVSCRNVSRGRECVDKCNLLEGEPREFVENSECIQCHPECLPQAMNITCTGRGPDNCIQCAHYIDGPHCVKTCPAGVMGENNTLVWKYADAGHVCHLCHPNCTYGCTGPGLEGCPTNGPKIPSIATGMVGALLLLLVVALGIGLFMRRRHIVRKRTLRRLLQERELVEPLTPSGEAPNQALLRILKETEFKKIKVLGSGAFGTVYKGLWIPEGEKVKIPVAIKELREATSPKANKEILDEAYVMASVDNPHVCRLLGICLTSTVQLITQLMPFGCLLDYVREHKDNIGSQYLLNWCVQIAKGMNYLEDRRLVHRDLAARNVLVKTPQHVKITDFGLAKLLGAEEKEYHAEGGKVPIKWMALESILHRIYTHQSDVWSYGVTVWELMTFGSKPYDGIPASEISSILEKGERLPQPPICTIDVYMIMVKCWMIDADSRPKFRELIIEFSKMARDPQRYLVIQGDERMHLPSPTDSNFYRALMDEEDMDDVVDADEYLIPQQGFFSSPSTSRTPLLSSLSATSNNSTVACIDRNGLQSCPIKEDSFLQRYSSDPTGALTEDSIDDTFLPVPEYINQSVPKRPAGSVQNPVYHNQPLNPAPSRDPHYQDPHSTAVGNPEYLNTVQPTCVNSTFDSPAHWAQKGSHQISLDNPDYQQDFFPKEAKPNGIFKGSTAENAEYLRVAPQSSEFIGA
Assay: EGFR in-cell Western (ICW) screening protocol
Format: cell-based
Parameters: unit not given here
Conditions: re-test
Method: The following example describes general EGFR in-cell Western (ICW) screening protocol. Two cell plates were prepared for each compound plate. Serum Starvation: The cells were serum starved prior to compound addition. […] The cell plates were incubated at 37° C./5% CO2 for 2 hours. Prepared compound plates were stored at RT prior to use and at 4° C. long term. […] Data Analysis: The % of Maximum and % Inhibition values were calculated as follows. […]
// no (0) strictly below 20 in ICW Re-Test; yes (1) otherwise

INSERT INTO measurements (compound, answer_label) VALUES
  ('C=CCOc1ccc(C(Nc2ccccn2)c2ccc3cccnc3c2O)cc1 (centres unmarked)', 'yes (1)'),
  ('COc1ccccc1NC(c1cccnc1)c1ccc2cccnc2c1O (centres unmarked)', 'yes (1)'),
  ('CCOc1cc(C(NC(C)=O)c2cc([N+](=O)[O-])c3cccnc3c2O)ccc1O (centres unmarked)', 'yes (1)'),
  ('O=[N+]([O-])c1ccccc1C(Nc1ccccn1)c1ccc2cccnc2c1O (centres unmarked)', 'no (0)'),
  ('CCc1ccc(C(Nc2ccccn2)c2ccc3cccnc3c2O)cc1 (centres unmarked)', 'no (0)');

----------
Assay: Stability on incubation with mouse liver microsomes (MLM)
Assay type: in vitro ADME
Conditions: percentage left after incubation with mouse liver microsomes for 30 minutes
reported.metric: MLM % Remaining@ 30 Min (%)

INSERT INTO results (compound, reported_metric, unit_spec, numeric_result) VALUES
  ('Cc1cc(Cl)cnc1NC(c1ccc(Cl)cc1Cl)c1ccc2cccnc2c1O (stereo not drawn) [AD4-13130]', 'MLM % Remaining@ 30 Min', '%', 69),
  ('Cc1cccc(NC(c2ccc(F)cc2Cl)c2ccc3cccnc3c2O)n1 (stereo not drawn) [AD4-13024]', 'MLM % Remaining@ 30 Min', '%', 20),
  ('Cc1ccc2ccc(C(Nc3ncc(Cl)cc3C)c3ccc(Cl)cc3Cl)c(O)c2n1 (stereo not drawn) [AD4-13200]', 'MLM % Remaining@ 30 Min', '%', 67),
  ('Cc1cc(Cl)cnc1NC(c1ccc2cccnc2c1O)c1c(F)c(F)cc(F)c1F (stereo not drawn) [AD4-13059]', 'MLM % Remaining@ 30 Min', '%', 64),
  ('Oc1c(C(Nc2ccc(C(F)(F)F)nc2)c2ccc(C(F)(F)F)cc2F)ccc2cccnc12 (stereo not drawn) [AD4-13065]', 'MLM % Remaining@ 30 Min', '%', 47),
  ('Cc1cc(NC(c2cccc(Cl)c2Cl)c2ccc3cccnc3c2O)ncc1Cl (stereo not drawn) [AD4-13153]', 'MLM % Remaining@ 30 Min', '%', 62),
  ('Cc1cc(Cl)cnc1NC(c1ccc(F)cc1F)c1ccc2cccnc2c1O (stereo not drawn) [AD4-13068]', 'MLM % Remaining@ 30 Min', '%', 46),
  ('Cc1cc(NC(c2cc(Cl)cc(Cl)c2)c2ccc3cccnc3c2O)ncc1F (stereo not drawn) [AD4-13114]', 'MLM % Remaining@ 30 Min', '%', 40),
  ('Cc1cccc(NC(c2ccc3cccnc3c2O)c2c(F)c(F)cc(F)c2F)n1 (stereo not drawn) [AD4-12918]', 'MLM % Remaining@ 30 Min', '%', 15),
  ('Cc1c(Cl)cnc(NC(c2ccc(Cl)cc2Cl)c2ccc3cccnc3c2O)c1F (stereo not drawn) [AD4-13199]', 'MLM % Remaining@ 30 Min', '%', 63),
  ('Cc1cccc(NC(c2cc(Cl)ccc2Cl)c2ccc3cccnc3c2O)n1 (stereo not drawn) [AD4-12955]', 'MLM % Remaining@ 30 Min', '%', 41),
  ('Oc1c(C(Nc2cc(Cl)c(Cl)cn2)c2ccc(Cl)c(Cl)c2)ccc2cccnc12 (stereo not drawn) [AD4-13177]', 'MLM % Remaining@ 30 Min', '%', 86),
  ('Oc1c(C(Nc2ccc(F)cn2)c2ccc(C(F)(F)F)c(F)c2)ccc2cccnc12 (stereo not drawn) [AD4-13061]', 'MLM % Remaining@ 30 Min', '%', 58),
  ('Cc1cc(NC(c2cc(Cl)cc(Cl)c2)c2ccc3cccnc3c2O)ncc1Cl (stereo not drawn) [AD4-13122]', 'MLM % Remaining@ 30 Min', '%', 60),
  ('Cc1cc(NC(c2ccc(C(F)(F)F)c(F)c2)c2ccc3cccnc3c2O)ncc1Cl (stereo not drawn) [AD4-13106]', 'MLM % Remaining@ 30 Min', '%', 42),
  ('Cc1cccc(NC(c2ccc(Cl)c(Cl)c2)c2ccc3cccnc3c2O)n1 (stereo not drawn) [AD4-12916]', 'MLM % Remaining@ 30 Min', '%', 26),
  ('Oc1c(C(Nc2cc(Cl)c(Cl)cn2)c2cccc(Cl)c2Cl)ccc2cccnc12 (stereo not drawn) [AD4-13172]', 'MLM % Remaining@ 30 Min', '%', 80),
  ('Cc1cccc(NC(c2ccc(OC(F)(F)F)cc2)c2ccc3cccnc3c2O)n1 (stereo not drawn) [AD4-12902]', 'MLM % Remaining@ 30 Min', '%', 17);
